# Kd annotations
# Test system: hemagglutinin HA1 subunit H9 (recombinant, Abcam ab67740) (Influenza A virus H9 (strain not given))
# PROTOCOL DESCRIPTION: SPR
Note: state the figure and append the unit.

# count of solved cases: 3
>>> observed_result("TTGGGGTTATTTTGGGAGGGCGGGGGTT [RHA0385]")
"14 nM"
>>> observed_result("TTGGGGTAAGAAGGGAGGGCGGGGGTT [G7-TAAGAA]")
"60 nM"
>>> observed_result("TTGGGGTTAGGGAGGGCGGGGGTT [G7-TTA]")
"28 nM"

Kd for TTGGGGTTATTAAGGGAGGGCGGGGGTT [G7-TTATTAA] is 28 nM

====

# Tested on: hemagglutinin H3 on virus particles (Influenza A virus A/England/42/1972 (H3N2))
# PROTOCOL DESCRIPTION: ELAA
Listed below: Kd values for each entry.
Response body: numeric value in nM, unit text excluded.

Record summary for TTGGGGTAAGAAGGGAGGGCGGGGGTT [5'-biotin G7-TAAGAA] : reported Kd = 17

Record TTGGGGTTAGGGAGGGCGGGGGTT [5'-biotin G7-TTA] , field Kd: 7

Entry TTGGGGTTATTAAGGGAGGGCGGGGGTT [5'-biotin G7-TTATTAA] ; Kd = 8

The reported Kd of the sequence TTGGGGTTATTTTGGGAGGGCGGGGGTT [5'-biotin RHA0385] was 2

====

# Test system: hemagglutinin H7 on virus particles (Influenza A virus A/mallard/Sweden/91/2002 (H7N9))
# PROTOCOL DESCRIPTION: ELAA
Item-by-item account of Kd
Kindly answer with a numeric value in nM, unit omitted.

>>> observed_result("TTGGGGTTAGGGAGGGCGGGGGTT [5'-biotin G7-TTA]")
6
>>> observed_result("TTGGGGTTATTTTGGGAGGGCGGGGGTT [5'-biotin RHA0385]")
8
>>> observed_result("TTGGGGTAAGAAGGGAGGGCGGGGGTT [5'-biotin G7-TAAGAA]")
13

Now consider the entry below.
// sample TTGGGGTTATTAAGGGAGGGCGGGGGTT [5'-biotin G7-TTATTAA] , its Kd was 13

====

# Test system: hemagglutinin HA1 subunit H1 (recombinant, Abcam ab69741) (Influenza A virus H1 (strain not given))
# PROTOCOL DESCRIPTION: SPR
ENDPOINT: Kd (nM)
Lab book: enter the figure in nM, no units written.

Use these answered entries as a reference point.
>>> observed_result("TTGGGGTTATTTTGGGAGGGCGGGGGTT [RHA0385]")
7
>>> observed_result("TTGGGGTTATTAAGGGAGGGCGGGGGTT [G7-TTATTAA]")
90
>>> observed_result("TTGGGGTAAGAAGGGAGGGCGGGGGTT [G7-TAAGAA]")
60

Could you now look at the following sequence, please?
Kd in this record for TTGGGGTTAGGGAGGGCGGGGGTT [G7-TTA] : 30

====

Here the recorded pKd is given for each entry.
# Test system: hemagglutinin HA1 subunit H3 (recombinant, Abcam ab69749) (Influenza A virus H3 (strain not given))
# PROTOCOL DESCRIPTION: SPR
Scale explanation: pKd corresponds to minus log10 of a concentration expressed in moles per litre.

Example cases with answers are listed next.
>>> observed_result("TTGGGGTAAGAAGGGAGGGCGGGGGTT [G7-TAAGAA]")
7.22
>>> observed_result("TTGGGGTTAGGGAGGGCGGGGGTT [G7-TTA]")
7.80
>>> observed_result("TTGGGGTTATTAAGGGAGGGCGGGGGTT [G7-TTATTAA]")
7.30

Next, consider the following sequence.
Lab note: measured pKd of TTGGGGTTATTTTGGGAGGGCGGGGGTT [RHA0385] was 7.92

====

# Test system: hemagglutinin H9 on virus particles (Influenza A virus A/duck/Primorie/3628/2002 (H9N2))
# PROTOCOL DESCRIPTION: ELAA
Recorded pKd, one value per entry.
Please treat pKd as minus the base-10 logarithm of the molar concentration.

Completed entries (count: 3):
>>> observed_result("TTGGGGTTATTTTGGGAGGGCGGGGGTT [5'-biotin RHA0385]")
8.30
>>> observed_result("TTGGGGTTAGGGAGGGCGGGGGTT [5'-biotin G7-TTA]")
8.00
>>> observed_result("TTGGGGTAAGAAGGGAGGGCGGGGGTT [5'-biotin G7-TAAGAA]")
8.15

# pKd of TTGGGGTTATTAAGGGAGGGCGGGGGTT [5'-biotin G7-TTATTAA] = 8.10

====

# System: hemagglutinin H5 on virus particles (Influenza A virus A/chicken/Kurgan/3654at/2005 (H5N1))
# PROTOCOL DESCRIPTION: ELAA
Consider the following sequences and their measured pKd readings.
Scale: pKd equals -log10([C]), with [C] in mol/L.

Here are 3 sequences together with their reported answers.
>>> observed_result("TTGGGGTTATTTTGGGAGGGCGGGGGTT [5'-biotin RHA0385]")
8.40
>>> observed_result("TTGGGGTTAGGGAGGGCGGGGGTT [5'-biotin G7-TTA]")
7.89
>>> observed_result("TTGGGGTTATTAAGGGAGGGCGGGGGTT [5'-biotin G7-TTATTAA]")
8.30

Moving on to the next sequence.
pKd reading for TTGGGGTAAGAAGGGAGGGCGGGGGTT [5'-biotin G7-TAAGAA] : 8.05
